biological target: Cyclin-dependent kinase 4/cyclin D1 (Homo sapiens); assay: Inhibition of cyclic dependent kinase 4 (CDK4)/cyclin D1
Sequence (P11802 whole entry): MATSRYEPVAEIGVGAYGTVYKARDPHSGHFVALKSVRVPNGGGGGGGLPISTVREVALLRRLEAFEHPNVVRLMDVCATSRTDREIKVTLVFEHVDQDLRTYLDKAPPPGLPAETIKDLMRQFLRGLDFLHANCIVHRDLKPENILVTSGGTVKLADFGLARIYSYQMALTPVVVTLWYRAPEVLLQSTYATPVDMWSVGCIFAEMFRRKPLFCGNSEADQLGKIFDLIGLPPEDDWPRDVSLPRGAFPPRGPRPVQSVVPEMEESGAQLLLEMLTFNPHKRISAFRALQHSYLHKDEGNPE
Sequence (P24385 whole entry, further chain): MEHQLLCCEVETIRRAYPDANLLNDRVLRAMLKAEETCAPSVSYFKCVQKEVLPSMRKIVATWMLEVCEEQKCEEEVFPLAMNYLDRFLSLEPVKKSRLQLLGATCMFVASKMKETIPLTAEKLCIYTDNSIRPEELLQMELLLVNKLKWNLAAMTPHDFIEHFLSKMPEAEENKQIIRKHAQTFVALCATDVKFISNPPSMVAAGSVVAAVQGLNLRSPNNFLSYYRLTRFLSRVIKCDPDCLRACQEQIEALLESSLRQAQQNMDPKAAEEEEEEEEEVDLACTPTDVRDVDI

[
  {
    "compound": "N[C@H]1CC[C@H](Nc2nc(NCc3cccc(I)c3)c3ncn(C4CCCC4)c3n2)CC1",
    "units": "nM",
    "IC50": 2000
  },
  {
    "compound": "N[C@H]1CC[C@H](Nc2nc(NCC3CC3)c3ncn(C4CCCC4)c3n2)CC1",
    "units": "nM",
    "IC50": 780
  },
  {
    "compound": "C[C@H](Nc1nc(N[C@H]2CC[C@H](N)CC2)nc2c1ncn2C1CCCC1)c1ccccc1",
    "units": "nM",
    "IC50": 8800
  }
]

* * *

target: Cyclin-dependent kinase 2/cyclin E (Homo sapiens, UniProt P24941); assay: Inhibition of cyclic dependent kinase 2 (CDK2)/cyclin E
pIC50: −log10 of the molar value.
assay_endpoint: pIC50

[
  {
    "compound": "C[C@H](Nc1nc(N[C@H]2CC[C@H](N)CC2)nc2c1ncn2C1CCCC1)c1ccccc1",
    "endpoint_result": 6.14
  },
  {
    "compound": "N[C@H]1CC[C@H](Nc2nc(NCc3cccc(I)c3)c3ncn(C4CCCC4)c3n2)CC1",
    "endpoint_result": 7.30
  },
  {
    "compound": "N[C@H]1CC[C@H](Nc2nc(NCC3CC3)c3ncn(C4CCCC4)c3n2)CC1",
    "endpoint_result": 7.62
  }
]

* * *

test system: DMS-114; assay: Inhibition of DMS114 human lung tumor cell proliferation; format: functional, cell-based
pIC50: −log10 of the molar value.
// values below are reported pIC50
assay_endpoint: pIC50

[
  {
    "compound": "N[C@H]1CC[C@H](Nc2nc(NCC3CC3)c3ncn(C4CCCC4)c3n2)CC1",
    "assay_endpoint": "pIC50",
    "endpoint_result": 5.85
  },
  {
    "compound": "N[C@H]1CC[C@H](Nc2nc(NCc3cccc(I)c3)c3ncn(C4CCCC4)c3n2)CC1",
    "assay_endpoint": "pIC50",
    "endpoint_result": 6.00
  },
  {
    "compound": "C[C@H](Nc1nc(N[C@H]2CC[C@H](N)CC2)nc2c1ncn2C1CCCC1)c1ccccc1",
    "assay_endpoint": "pIC50",
    "endpoint_result": 5.18
  }
]

* * *

system: MDA-MB-231; test: Inhibition of MDA-MB-231 human breast tumor cell proliferation; type: functional, cell-based

[
  {
    "compound": "N[C@H]1CC[C@H](Nc2nc(NCC3CC3)c3ncn(C4CCCC4)c3n2)CC1",
    "IC50 (nM)": 1700
  },
  {
    "compound": "N[C@H]1CC[C@H](Nc2nc(NCc3cccc(I)c3)c3ncn(C4CCCC4)c3n2)CC1",
    "IC50 (nM)": 1000
  },
  {
    "compound": "C[C@H](Nc1nc(N[C@H]2CC[C@H](N)CC2)nc2c1ncn2C1CCCC1)c1ccccc1",
    "IC50 (nM)": 5200
  }
]

* * *

biological target: Cyclin-dependent kinase 1/cyclin B (Homo sapiens, UniProt P06493); assay: Inhibition of human cyclic dependent kinase 1 (CDK1)/cyclin B

[
  {
    "compound": "N[C@H]1CC[C@H](Nc2nc(NCc3cccc(I)c3)c3ncn(C4CCCC4)c3n2)CC1",
    "tested_target": "Cyclin-dependent kinase 1/cyclin B (Homo sapiens, UniProt P06493)",
    "IC50": "226 nM"
  },
  {
    "compound": "C[C@H](Nc1nc(N[C@H]2CC[C@H](N)CC2)nc2c1ncn2C1CCCC1)c1ccccc1",
    "tested_target": "Cyclin-dependent kinase 1/cyclin B (Homo sapiens, UniProt P06493)",
    "IC50": "2000 nM"
  },
  {
    "compound": "N[C@H]1CC[C@H](Nc2nc(NCC3CC3)c3ncn(C4CCCC4)c3n2)CC1",
    "tested_target": "Cyclin-dependent kinase 1/cyclin B (Homo sapiens, UniProt P06493)",
    "IC50": "70 nM"
  },
  {
    "compound": "N[C@H]1CC[C@H](Nc2nc(NCc3ccccc3)c3ncn(C4CCCC4)c3n2)CC1",
    "tested_target": "Cyclin-dependent kinase 1/cyclin B (Homo sapiens, UniProt P06493)",
    "IC50": "52 nM"
  }
]

* * *

system: HT-29; assay: Inhibition of HT-29 human colon tumor cell proliferation; type: functional, cell-based

[
  {
    "compound": "N[C@H]1CC[C@H](Nc2nc(NCc3cccc(I)c3)c3ncn(C4CCCC4)c3n2)CC1",
    "IC50": "1.2 µM"
  },
  {
    "compound": "N[C@H]1CC[C@H](Nc2nc(NCC3CC3)c3ncn(C4CCCC4)c3n2)CC1",
    "IC50": "2 µM"
  },
  {
    "compound": "C[C@H](Nc1nc(N[C@H]2CC[C@H](N)CC2)nc2c1ncn2C1CCCC1)c1ccccc1",
    "IC50": "5.7 µM"
  }
]
